measurement.notes: Drug solubility in medium-chain triglycerides (MCT, Miglyol 812 N); SORESOS 96-well assay, miniaturized shake-flask or literature
protocol.conditions: decadic logarithm of molar solubility in MCTs (Miglyol 812 N), 24 h at room temperature; no literature source given
property.name: log10 S [M] (M)

# annotated cases, reported log10 S [M] shown
CCC1=C(C)CN(C(=O)NCCc2ccc(S(=O)(=O)NC(=O)N[C@H]3CC[C@H](C)CC3)cc2)C1=O [glimepiride]	-4.38
CN(C(=O)c1ccc(C#Cc2cc(F)ccc2F)cn1)C(C)(C)C	-1.29
Cc1sc(NC(=O)C2=C(C(=O)O)CCCC2)c(-c2nc(C3CC3)no2)c1C	-2.99
CC1(C(=O)N2C[C@H](S(=O)(=O)c3ccc(OCC(F)(F)F)cc3C(F)(F)F)C[C@@H]2C(=O)NC2(C#N)CC2)CC1	-2.64
COc1ccc(N2CCOCC2)c2sc(NC(=O)N3CCC(CO)CC3)nc12	-4.65
Cc1ccc(Nc2cncnc2)c(C(=O)Nc2ccn(C)n2)n1	-2.35

I. N#Cc1cc(-c2ccc(F)c(F)c2)c2c(c1)cc1n2CCNC1=O
II. COc1cc(C(=O)O)ccc1NC(=O)[C@@H]1N[C@@H](CC(C)(C)C)[C@](C#N)(c2ccc(Cl)cc2F)[C@H]1c1cccc(Cl)c1F
Task: Given the listed records, identify the one among I and II with higher log10 S [M]. Provide the label of your selected option as the answer.
Result: II

Origin of values: paper PMC11220795
